This collection of values is drawn from paper PMC11714206.

biological target: MyD88^TIR (Homo sapiens); construct: MyD88 (residues 148–296); 6xHis; made in house; host or cells: E. coli BL21 (DE3); assay: T‐Surf phage library (P8 and P3) selection against MyD88^TIR, four rounds, NGS read counts; assay type: binding; settings: P8_MyD88: rank by NGS read count before grouping
Sequence (Q99836 148-296): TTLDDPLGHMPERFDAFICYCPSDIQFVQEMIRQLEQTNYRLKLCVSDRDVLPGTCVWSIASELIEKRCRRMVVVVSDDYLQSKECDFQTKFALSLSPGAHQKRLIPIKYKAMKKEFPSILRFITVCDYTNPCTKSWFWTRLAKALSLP
Respond with True for Rank (before) values of 3000 and above, False for values below.

> print(dat)
   biopolymer.sequence  label.value
1     YKLALHFRVWRVGVSI        False
2    DWVWDYLLQILHARELF        False
3    ELDFASNMEQFWDRLYY         True
4     DLLRHLIEAFSRMHIN        False
5     HLIQQGIELHLHQLHL         True
6     DPQDLDWFYERQVRLF        False

Problem: Decide: is the reported value of Rank (before) for "YASSSWYRFELVDILW" equal to or greater than 3000?
Solution: False

###

target: MAL^TIR (Homo sapiens); construct: MAL (residues 79–221); 6xHis; made in house; host or cells: E. coli BL21 (DE3); assay: T‐Surf phage library (P8 and P3) selection against MAL^TIR, four rounds, NGS read counts; format: binding; conditions: P8_MAL: rank by count before grouping
Sequence (P58753 79-221): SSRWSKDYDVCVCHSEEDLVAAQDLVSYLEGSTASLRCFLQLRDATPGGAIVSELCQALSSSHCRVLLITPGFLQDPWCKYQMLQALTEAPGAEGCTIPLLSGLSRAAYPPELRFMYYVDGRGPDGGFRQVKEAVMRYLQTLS
Endpoint Name: Rank (before)

> print(dat)
   biopolymer.sequence  endpoint.name  endpoint.result
1     SEFILQIILWMNPKIV  Rank (before)             2449
2     AFLYTFLLNLTHPTHF  Rank (before)             1829
3      QLIQQWIELHAPAAS  Rank (before)              969
4     SEFIQKIILCMNQKIV  Rank (before)             2458
5     YTALTNSGFHAFSDKD  Rank (before)             1556
6     WFYARLVSLLLRDTKV  Rank (before)             1132
7     WFYERLLSRILRDTKV  Rank (before)             1249
8     WFYERLVRLFLRDTKV  Rank (before)             1237

Problem: Find Rank (before) (MAL^TIR (Homo sapiens)) for the entry "TFLDRLYNPLVHAGIH"
Solution: 2621

Problem: Find Rank (before) (MAL^TIR (Homo sapiens)) for the entry "TRPYLDWPQEPEMHEA"
Solution: 2652

Problem: Find Rank (before) (MAL^TIR (Homo sapiens)) for the entry "TFLGHLSNGLVQAGIH"
Solution: 2556

Problem: Find Rank (before) (MAL^TIR (Homo sapiens)) for the entry "WFYERLVSLIRRDTQV"
Solution: 1220

Problem: Find Rank (before) (MAL^TIR (Homo sapiens)) for the entry "YFLHFLLFSRPQTQYI"
Solution: 1458

Problem: Find Rank (before) (MAL^TIR (Homo sapiens)) for the entry "REFIKKIILWMNPKIV"
Solution: 2531

###

biological target: MAL^TIR (Homo sapiens); construct: MAL (residues 79–221); 6xHis; made in house; host or cells: E. coli BL21 (DE3); test: T‐Surf phage library (P8 and P3) selection against MAL^TIR, four rounds, NGS read counts; assay type: binding; conditions: P3 library, 4R selection against MAL, rank before grouping
// returns Not fulfilled unless P3_MAL Rank (before) is strictly below 3000, in which case Fulfilled

> print(dat)
   biopolymer.sequence  label.value
1     HHTGSYGQALAEHEKR    Fulfilled

Continue with the next sequence.
Problem: Determine if "PNLRTTLMTSPMRTKT" shows P3_MAL Rank (before) strictly lower than 3000.
Solution: Fulfilled

###

molecular target: MyD88^TIR (Homo sapiens); construct: MyD88 (residues 148–296); 6xHis; made in house; host or cells: E. coli BL21 (DE3); assay: T‐Surf phage library (P8 and P3) selection against MyD88^TIR, four rounds, NGS read counts; format: binding; conditions: P3 library, 4R selection against MyD88, rank before grouping
Entries and their measured P3_MyD88 Rank (before) follow.
Number only, no unit.

// known answers, use as guide
> print(dat)
   biopolymer.sequence           endpoint.name  endpoint.result
1     KNLLNALMSKNIRTFM  P3_MyD88 Rank (before)             3789
2   NQWRNALTAAANLSGEFG  P3_MyD88 Rank (before)             3505
3     YAFTGHLHRYIEQRSG  P3_MyD88 Rank (before)             1533
4     EWIREQRRSALKERLP  P3_MyD88 Rank (before)             2171
5     NELVHVWRSKANRLVG  P3_MyD88 Rank (before)             3408

Problem: Reported P3_MyD88 Rank (before), sequence "TSHLHHAPRPNEIETL" : ____
Solution: 3323

Problem: Reported P3_MyD88 Rank (before), sequence "NQWRNALTEAAHLSGW" : ____
Solution: 3520

Problem: Reported P3_MyD88 Rank (before), sequence "LVAHEITKKLKSFATI" : ____
Solution: 2309

Problem: Reported P3_MyD88 Rank (before), sequence "LQNQWKLALTNSGFHTFRDND" : ____
Solution: 2346

Problem: Reported P3_MyD88 Rank (before), sequence "SSFREALWRLIELSTK" : ____
Solution: 3223

Problem: Reported P3_MyD88 Rank (before), sequence "LKAESCRQALEKSGKR" : ____
Solution: 2533

Problem: Reported P3_MyD88 Rank (before), sequence "EAFAVHENISKKTLK" : ____
Solution: 2194

Problem: Reported P3_MyD88 Rank (before), sequence "GSFREILLRLLDLSKK" : ____
Solution: 1858

Problem: Reported P3_MyD88 Rank (before), sequence "YTALTNRAFIPFVIM" : ____
Solution: 1658

Problem: Reported P3_MyD88 Rank (before), sequence "SRDYATSPWALDELLR" : ____
Solution: 3103

Problem: Reported P3_MyD88 Rank (before), sequence "YLKWKEALHQFHSWV" : ____
Solution: 1609

Problem: Reported P3_MyD88 Rank (before), sequence "NQWKLALTKVANLV" : ____
Solution: 3536

Problem: Reported P3_MyD88 Rank (before), sequence "RISAFHQQLVMALNTQ" : ____
Solution: 2599

Problem: Reported P3_MyD88 Rank (before), sequence "YNFISHLYDALRLNKIAPF" : ____
Solution: 1728

Problem: Reported P3_MyD88 Rank (before), sequence "YTALANSGFHTFHDND" : ____
Solution: 1634

Problem: Reported P3_MyD88 Rank (before), sequence "SSCREGLWRLLELIKK" : ____
Solution: 3259

Problem: Reported P3_MyD88 Rank (before), sequence "RISAFHQQLVIALEAQ" : ____
Solution: 2595

Problem: Reported P3_MyD88 Rank (before), sequence "EWNRKQKRPDQKERLQ" : ____
Solution: 2185

Problem: Reported P3_MyD88 Rank (before), sequence "SSFREGLWRLLELRKN" : ____
Solution: 3169

###

Entries and their measured P8_MAL Rank (before) follow.
Target: MAL^TIR (Homo sapiens)
Construct: MAL (residues 79–221); 6xHis; made in house; host or cells: E. coli BL21 (DE3)
Test: T‐Surf phage library (P8 and P3) selection against MAL^TIR, four rounds, NGS read counts
Type: binding
Settings: P8 library, selection against MAL, rank before grouping
Experimental: T‐Surf libraries were screened against the immobilized TIR domains of two major human TLR adaptor proteins, MAL^TIR and MyD88^TIR, allowing cross‐species selection of TIR‐binding motifs with 190 946 TIR‐derived peptides in a single binding assay (Scheme 1). Enriched phage pools from the fourth round of selection were analyzed using NGS after barcoding the peptide‐coding regions of the phage pools. […]

Problem: Reported P8_MAL Rank (before), sequence "LFWELLRQALGSRNRL" : ____
Solution: 2152

Problem: Reported P8_MAL Rank (before), sequence "AFLYTLLNNVLRNPTI" : ____
Solution: 1888

Problem: Reported P8_MAL Rank (before), sequence "NYASSSWALDELWNIF" : ____
Solution: 2655

Problem: Reported P8_MAL Rank (before), sequence "RNNLMDRLYQALDLLR" : ____
Solution: 2298

Problem: Reported P8_MAL Rank (before), sequence "SDFIQLINLLVKPKII" : ____
Solution: 2443

Problem: Reported P8_MAL Rank (before), sequence "LFFWESLKKLLRSAGR" : ____
Solution: 2114

Problem: Reported P8_MAL Rank (before), sequence "AFFGEQLVTGLAKRSS" : ____
Solution: 1742

Problem: Reported P8_MAL Rank (before), sequence "TFLGHLLNALVQTDIL" : ____
Solution: 2607

Problem: Reported P8_MAL Rank (before), sequence "TYLGNLNNALVQAGIH" : ____
Solution: 2649

Problem: Reported P8_MAL Rank (before), sequence "WSYERLVRLILRDTKV" : ____
Solution: 1406
